- Organism: Rattus norvegicus
- ASSAY COMMENT: Open TG-GATES - Regimen: Single
- Type: toxicity, organism-based, Sprague-Dawley
- Set-up: regimen Single, gender Male, age 6 weeks
- CONDITION DETAILS: in vivo, po, 0 mg/kg, 3 h, tissue Plasma, route gavage, dose level Control
Assign class by A/G: not lower than 1 means yes (1); lower than 1 means no (0).

{"COMPOUND": "O=C(O)c1cc(/N=N/c2ccc(S(=O)(=O)Nc3ccccn3)cc2)ccc1O [SULFASALAZINE]", "CLASS NAME": "yes (1)"}
{"COMPOUND": "COc1ccc(Cc2nccc3cc(OC)c(OC)cc23)cc1OC [PAPAVERINE]", "CLASS NAME": "yes (1)"}
{"COMPOUND": "NC(=O)N/N=C/c1ccc([N+](=O)[O-])o1 [NITROFURAZONE]", "CLASS NAME": "no (0)"}
{"COMPOUND": "CCc1cc(C(N)=S)ccn1 [ETHIONAMIDE]", "CLASS NAME": "yes (1)"}
{"COMPOUND": "Cn1c(=O)c2[nH]cnc2n(C)c1=O.O [THEOPHYLLINE]", "CLASS NAME": "yes (1)"}

Ask: Check this compound for A/G at or above 1: CN(C)CCC=C1c2ccccc2CCc2ccccc21 [AMITRIPTYLINE]
Result: no (0)
